Data origin: paper PMC4552634

tested on: P. falciparum stage V gametocytes; set-up: BacTiter-Glo ATP luminescence viability of purified stage V gametocytes in 384-well plates, per cent inhibition versus DMSO; settings: 48 h, 5 µM; inhibitor
The campaign covered roughly 13,000 compounds. About 3,200 (25%) showed an effect of 50% or more. The list shows a part of the results.
outcomeMeasure: % Inhibition (%)

[[record]]
molecule = "Cc1ccc(C2CCN(CCCCNC(=O)c3ccc(-c4ccc(C#N)cc4)cc3)CC2)c(O)c1 [TCMDC-138658]"
outcomemeasure = "% Inhibition"
valuereported = -70.86

[[record]]
molecule = "CC1(C)CCC(C)(C)c2c1ccc(C1CCN(CCCCNC(=O)c3ccc(-c4ccc(Cl)cc4)cc3)CC1)c2O [TCMDC-135483]"
outcomemeasure = "% Inhibition"
valuereported = 86.31

[[record]]
molecule = "CN(Cc1cccc(O)c1)C1CCN(c2cc(NC(=O)c3cccc(F)c3)ccn2)CC1 [TCMDC-134962]"
outcomemeasure = "% Inhibition"
valuereported = -30.72

[[record]]
molecule = "CCN(C)c1cc(C(=O)N[C@@H](Cc2ccccc2)[C@H](O)CNC(C)(C)c2cccc(OC)c2)cc(N2CCCC2=O)c1 [TCMDC-134529]"
outcomemeasure = "% Inhibition"
valuereported = 28.65

[[record]]
molecule = "N#Cc1ccc(-c2ccc(C(=O)NCCCCN3CCC(c4nc5ccccc5[nH]4)CC3)cc2)cc1 [TCMDC-133362]"
outcomemeasure = "% Inhibition"
valuereported = 24.39

[[record]]
molecule = "COc1c(C2=CCN(CCCCNC(=O)c3ccc(-c4ccc(C#N)cc4)cc3)CC2)c(C)cc2c1C(C)(C)CCC2(C)C [TCMDC-135480]"
outcomemeasure = "% Inhibition"
valuereported = 3.716

[[record]]
molecule = "O=C(Nc1ccccc1-c1ccccc1)C1CCCN1C(=O)Nc1ccc(Cl)cc1 (stereo not shown) [TCMDC-123648]"
outcomemeasure = "% Inhibition"
valuereported = 32.25

[[record]]
molecule = "CC1(C)CCC(C)(C)c2c1ccc(C1CCN(CCCCNC(=O)c3ccc(-c4ccc(C#N)cc4)cc3)CC1)c2O [TCMDC-135505]"
outcomemeasure = "% Inhibition"
valuereported = 91.89

[[record]]
molecule = "Cc1[nH]c2ccccc2c1C1CCN(CCCCNC(=O)c2ccc(-c3ccc(C#N)cc3)cc2)CC1 [TCMDC-138808]"
outcomemeasure = "% Inhibition"
valuereported = 60.39

[[record]]
molecule = "CO/C(=C\\C=C\\c1cc2cc(Cl)c(Cl)cc2[nH]1)C(=O)NCCCCN1CCN(c2ccccc2OC)CC1 [TCMDC-139178]"
outcomemeasure = "% Inhibition"
valuereported = -64.2

[[record]]
molecule = "COc1c(C2CCN(CCCCNC(=O)c3ccc(-c4ccc(C#N)cc4)cc3)CC2)cc(Cl)c2c1CCCC2 [TCMDC-135288]"
outcomemeasure = "% Inhibition"
valuereported = -31.75

[[record]]
molecule = "N#Cc1cccc(Nc2nccc(NCC(O)c3cccc(C(F)(F)F)c3)n2)c1 (stereo not shown) [TCMDC-136580]"
outcomemeasure = "% Inhibition"
valuereported = -40.58

[[record]]
molecule = "Cc1cc(C2CCN(CCCCNC(=O)c3ccc(-c4ccc(C#N)cc4)cc3)CC2)c(C)cc1O [TCMDC-138817]"
outcomemeasure = "% Inhibition"
valuereported = -58.22

[[record]]
molecule = "Clc1ccccc1OCc1ccccn1 [TCMDC-125865]"
outcomemeasure = "% Inhibition"
valuereported = -0.5645

[[record]]
molecule = "CCc1ccc(C2CCN(CCCCNC(=O)c3ccc(-c4ccc(Cl)cc4)cc3)CC2)c(O)c1 [TCMDC-138548]"
outcomemeasure = "% Inhibition"
valuereported = 18.22

[[record]]
molecule = "Cc1c(C2CCN(CCCCNC(=O)c3ccc(-c4ccc(C#N)cc4)cc3)CC2)c2ccccc2n1CCO [TCMDC-138815]"
outcomemeasure = "% Inhibition"
valuereported = -16.09

